- Conditions: in dichloromethane, 276.65 K
Observable: solubility (mole fraction)
Form field (numeric): enter value without unit.

Which solubility (mole fraction) reading was recorded for the molecule COC(=O)C(C)(C)N=NC(C)(C)C(=O)OC ?
0.451

---

- Conditions: in toluene, 269.55 K
Observable: solubility (mole fraction)
Form field (numeric): enter value without unit.

Which solubility (mole fraction) reading was recorded for the compound COC(=O)C(C)(C)N=NC(C)(C)C(=O)OC ?
0.237

---

- Conditions: in ethanol, 291.05 K
Observable: solubility (mole fraction)
Form field (numeric): enter value without unit.

Which solubility (mole fraction) reading was recorded for the compound COC(=O)C(C)(C)N=NC(C)(C)C(=O)OC ?
0.481

All values here come from BigSolDB 2.1.
